Test system: Staphylococcus aureus
Protocol Notes: Minimal bacterial concentration against Staphylococcus aureus was evaluated
Format: functional
Parameter Measured: MBC

Illustrative cases are given below, each with its answer.
- Molecule: "Cc1ccc(C2c3ccc([nH]3)C(c3ccc(C)cc3)c3ccc([nH]3)C(c3ccccc3OCCCC(=O)NC(CCCN=C(N)N)C(=O)NCC(=O)NC(CC(=O)O)C(=O)O)c3ccc([nH]3)C(c3ccc(C)cc3)c3ccc2[nH]3)cc1 (centres undefined)"
  MBC: "> 3 µg/mL"
- Molecule: "CC(N)C(=O)Nc1ccccc1C1c2ccc([nH]2)C(c2ccc(O[C@@H]3O[C@@H](CO)[C@@H](O)[C@H](O)[C@@H]3O)cc2)c2ccc([nH]2)C(c2ccc(O[C@@H]3O[C@@H](CO)[C@@H](O)[C@H](O)[C@@H]3O)cc2)c2ccc([nH]2)C(c2ccc(O[C@@H]3O[C@@H](CO)[C@@H](O)[C@H](O)[C@@H]3O)cc2)c2ccc1[nH]2 (some centres undefined)"
  MBC: "> 1.5 µg/mL"
- Molecule: "CC(N)C(=O)Nc1ccc(C2c3ccc([nH]3)C(c3ccc(NC(=O)C(C)N)cc3)c3ccc([nH]3)C(c3ccccc3O[C@@H]3O[C@@H](CO)[C@@H](O)[C@H](O)[C@@H]3O)c3ccc([nH]3)C(c3ccc(NC(=O)C(C)N)cc3)c3ccc2[nH]3)cc1 (some centres undefined)"
  MBC: "> 1.5 µg/mL"

// map Cc1ccc(C2c3ccc([nH]3)C(c3ccc(C)cc3)c3ccc([nH]3)C(c3ccc(OCCCC(=O)NC(CCCN=C(N)N)C(=O)NCC(=O)NC(CC(=O)O)C(=O)O)cc3)c3ccc([nH]3)C(c3ccc(C)cc3)c3ccc2[nH]3)cc1 (centres undefined) to recorded MBC (system: Staphylococcus aureus)
> 3 µg/mL

====

Tested on: Staphylococcus aureus
Protocol Notes: Minimal bacterial concentration against Staphylococcus aureus was evaluated
Assay type: functional
In this section, each of the compounds is paired with its reported MBC.

Use these answered entries as a reference point.
- Compound: "Cc1ccc(C2c3ccc([nH]3)C(c3ccc(C)cc3)c3ccc([nH]3)C(c3ccccc3N)c3ccc([nH]3)C(c3ccc(C)cc3)c3ccc2[nH]3)cc1 (stereo not drawn)"
  Assayed System: "Staphylococcus aureus"
  MBC: "> 3 mg/L"
- Compound: "Cc1ccc(C2c3ccc([nH]3)C(c3ccc(C)cc3)c3ccc([nH]3)C(c3ccc(OCCCC(=O)N(CCCN)CCCCNCCCN)cc3)c3ccc([nH]3)C(c3ccc(C)cc3)c3ccc2[nH]3)cc1 (stereo not drawn)"
  Assayed System: "Staphylococcus aureus"
  MBC: "> 1.5 mg/L"

Looking for the measured MBC of Nc1ccc(C2c3ccc([nH]3)C(c3ccc(N)cc3)c3ccc([nH]3)C(c3ccccc3O[C@@H]3O[C@@H](CO)[C@@H](O)[C@H](O)[C@@H]3O)c3ccc([nH]3)C(c3ccc(N)cc3)c3ccc2[nH]3)cc1 (stereo partly drawn) , can you help?
> 1.5 mg/L
